Test system: HCC-44 (Lung Adenocarcinoma)
experimentNotes: Bliss excess, mean over the matrix (fraction); higher = more synergy;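 further: after 72 h of two-drug dosing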
Known Bliss excess of a selection of molecules

molecule | targetOrTestSystem | Bliss excess
CN(CCO)CC[C@H](CSc1ccccc1)Nc1ccc(S(=O)(=O)NC(=O)c2ccc(N3CCC([C@@H](O)c4ccccc4-c4ccc(Cl)cc4)CC3)cc2)cc1S(=O)(=O)C(F)(F)F [AZD4320] + CC(=O)O[C@H]1C(=O)[C@@]2(C)[C@H]([C@H](OC(=O)c3ccccc3)[C@]3(O)C[C@H](OC(=O)[C@H](O)[C@@H](NC(=O)c4ccccc4)c4ccccc4)C(C)=C1C3(C)C)[C@]1(OC(C)=O)CO[C@@H]1C[C@@H]2O [Paclitaxel] (first compound max 1 µM, 7x7, partner max 3 µM) | HCC-44 (Lung Adenocarcinoma) | -0.0294
COc1nnc2ccc(N3CCC(c4ccc(OCCN5CCN(C)C(=O)[C@H]5C)cc4)CC3)nn12 [AZD5153] + C[C@@H]1COCCN1C2=NC(=NC(=C2)C3(CC3)[S@](=N)(=O)C)C4=C5C=CNC5=NC=C4 [AZD6738] (first compound max 1 µM, 7x7, partner max 10 µM) | HCC-44 (Lung Adenocarcinoma) | 0.0139
NC1(C(=O)N[C@@H](CCO)c2ccc(Cl)cc2)CCN(c2ncnc3[nH]ccc23)CC1 [Capivasertib] + COc1nnc2ccc(N3CCC(c4ccc(OCCN5CCN(C)C(=O)[C@H]5C)cc4)CC3)nn12 [AZD5153] (first compound max 10 µM, 7x7, partner max 1 µM) | HCC-44 (Lung Adenocarcinoma) | -0.0278
Cn1cnc2c(F)c(Nc3ccc(Br)cc3Cl)c(C(=O)NOCCO)cc21 [Selumetinib] + C[C@@H]1COCCN1C2=NC(=NC(=C2)C3(CC3)[S@](=N)(=O)C)C4=C5C=CNC5=NC=C4 [AZD6738] (first compound max 10 µM, 7x7, partner max 10 µM) | HCC-44 (Lung Adenocarcinoma) | -0.034

====

Known Bliss excess of a selection of molecules
Test system: FLO-1 (Esophageal Adenocarcinoma)
experimentNotes: Bliss excess, mean over the matrix (fraction); higher = more synergy

molecule | Bliss excess
CCN(CCO)CCCOc1ccc2c(Nc3cc(CC(=O)Nc4cccc(F)c4)[nH]n3)ncnc2c1 [AZD2811] + C[C@@H]1COCCN1C2=NC(=NC(=C2)C3(CC3)[S@](=N)(=O)C)C4=C5C=CNC5=NC=C4 [AZD6738] (first compound max 1 µM, 7x7, partner max 10 µM) | -0.0611
CN(CCO)CC[C@H](CSc1ccccc1)Nc1ccc(S(=O)(=O)NC(=O)c2ccc(N3CCC([C@@H](O)c4ccccc4-c4ccc(Cl)cc4)CC3)cc2)cc1S(=O)(=O)C(F)(F)F [AZD4320] + Cn1cnc2c(F)c(Nc3ccc(Br)cc3Cl)c(C(=O)NOCCO)cc21 [Selumetinib] (first compound max 1 µM, 7x7, partner max 3 µM) | 0.0109
Cc1nc(-c2cn3c(n2)-c2ccc(-c4cnn(C(C)(C)C(N)=O)c4)cc2OCC3)n(C(C)C)n1 [Taselisib] + O=C(Nc1ccc2[nH]nc(-c3ccncc3)c2c1)[C@@H]1CCN(CC(=O)N2CCN(c3ccc(-c4ncccn4)cc3)CC2)C1 [SCH772984] (first compound max 10 µM, 7x7, partner max 5 µM) | 0.115
C=CCn1c(=O)c2cnc(Nc3ccc(N4CCN(C)CC4)cc3)nc2n1-c1cccc(C(C)(C)O)n1 [AZD1775] + CCc1c2c(nc3ccc(O)cc13)-c1cc3c(c(=O)n1C2)COC(=O)[C@]3(O)CC [SN-38] (first compound max 1 µM, partner max 0.3 µM) | 0.0261
Cc1cc2ncnn2cc1Nc1ncc2c(n1)n(C1CCOCC1)c(=O)n2C [AZD7648] + C[C@@H]1COCCN1C2=NC(=NC(=C2)C3(CC3)[S@](=N)(=O)C)C4=C5C=CNC5=NC=C4 [AZD6738] (first compound max 10 µM, 7x7, partner max 10 µM) | -0.0191
CN(CCO)CC[C@H](CSc1ccccc1)Nc1ccc(S(=O)(=O)NC(=O)c2ccc(N3CCC([C@@H](O)c4ccccc4-c4ccc(Cl)cc4)CC3)cc2)cc1S(=O)(=O)C(F)(F)F [AZD4320] + C=CCn1c(=O)c2cnc(Nc3ccc(N4CCN(C)CC4)cc3)nc2n1-c1cccc(C(C)(C)O)n1 [AZD1775] (first compound max 1 µM, partner max 1 µM) | 0.0293
COc1nnc2ccc(N3CCC(c4ccc(OCCN5CCN(C)C(=O)[C@H]5C)cc4)CC3)nn12 [AZD5153] + CCN(CCO)CCCOc1ccc2c(Nc3cc(CC(=O)Nc4cccc(F)c4)[nH]n3)ncnc2c1 [AZD2811] (first compound max 1 µM, 7x7, partner max 1 µM) | -0.0165
